assay: NCI Yeast Anticancer Drug Screen. Data for the bub3 strain (AID 167); conditions: S. cerevisiae bub3 mutant strain, at 50.0 µM, active compounds read high
About 79,000 compounds went through this panel and 15% of them were active in at least one assay; those are over-represented in the sample as a whole.
The threshold is inclusive: growth inhibition of exactly -10% counts as true; values below receive false.

- CCNC(=S)NC1CCCCC1: false
- CC(=O)c1nc(C#N)c(N)o1: false
- N=C(N)c1cccc(NC(=O)CCc2ccccc2)c1: true
- CCNC(=O)c1cc2ccccc2cc1O: false
- CCOC(=O)c1nc2ccccc2nc1Nc1ccc(OC)c(OC)c1: false
- CC(=O)/C=C/N(C)c1ccc(O)cc1: true
